Entries annotated with measured EC50
# experimental_target: T1, CD228 protein on human melanoma SK-MEL-5 cells (human, UniProt P08582 20-709)
# T1 construct: whole, on cells; Endogenous CD228 on the cell line; also called SK-MEL-5 cells (expressing CD228 proteins)
# T1 sequence (looked up): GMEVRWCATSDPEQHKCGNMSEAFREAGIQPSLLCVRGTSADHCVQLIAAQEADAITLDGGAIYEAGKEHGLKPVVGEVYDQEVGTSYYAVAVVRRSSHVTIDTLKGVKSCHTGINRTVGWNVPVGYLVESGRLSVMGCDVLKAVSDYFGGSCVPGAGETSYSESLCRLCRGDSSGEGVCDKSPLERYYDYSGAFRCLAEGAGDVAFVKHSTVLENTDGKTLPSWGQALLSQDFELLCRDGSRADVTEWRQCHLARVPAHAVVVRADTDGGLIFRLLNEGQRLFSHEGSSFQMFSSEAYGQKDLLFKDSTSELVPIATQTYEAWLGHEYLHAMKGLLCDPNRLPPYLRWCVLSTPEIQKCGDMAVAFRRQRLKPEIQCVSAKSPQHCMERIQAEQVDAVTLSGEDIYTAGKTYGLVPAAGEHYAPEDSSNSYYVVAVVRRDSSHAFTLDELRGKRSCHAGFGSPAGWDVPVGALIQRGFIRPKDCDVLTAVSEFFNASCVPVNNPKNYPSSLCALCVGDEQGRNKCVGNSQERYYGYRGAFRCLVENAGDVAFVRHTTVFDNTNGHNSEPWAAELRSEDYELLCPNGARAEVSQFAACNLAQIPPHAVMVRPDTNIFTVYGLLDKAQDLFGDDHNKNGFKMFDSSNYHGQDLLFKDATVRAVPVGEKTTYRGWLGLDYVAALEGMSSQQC
# assay_notes: flow cytometry on SK-MEL-5 cells, fluorescent secondary antibody, MFI
# Procedure: To a 96-well round-bottom plate, human melanoma SK-MEL-5 cells (ATCC, HTB-70) were added with a cell density of 7E4 cells/50 μL/well. The antibodies were serially diluted with an FACS buffer (PBS, Boster Biological Technology, Catalog No. PYG0021) and added to the 96-well round-bottom plate at 50 μL/well. The plate was then incubated at 4° C. for 1 h. The supernatant was discarded after centrifugation at 400 g for 4 min. […]
Give just the number in mg/L; leave the unit off.

{"binder": "BA352 (antibody, human IgG1, kappa, V domains shown, Intact IgG1) VH: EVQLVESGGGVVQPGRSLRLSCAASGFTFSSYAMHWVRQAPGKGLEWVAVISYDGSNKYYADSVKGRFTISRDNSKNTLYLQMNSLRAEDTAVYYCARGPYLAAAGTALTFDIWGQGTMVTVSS VL: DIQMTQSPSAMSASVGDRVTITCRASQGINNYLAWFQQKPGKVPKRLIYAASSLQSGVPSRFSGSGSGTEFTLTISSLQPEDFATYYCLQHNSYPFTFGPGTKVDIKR", "result_type": "EC50", "reported_value": 0.152}

Let us examine a further case.
Read the entry CA149 (antibody, human IgG1, kappa, V domains shown, Intact IgG1; also called CA149 antibody) VH: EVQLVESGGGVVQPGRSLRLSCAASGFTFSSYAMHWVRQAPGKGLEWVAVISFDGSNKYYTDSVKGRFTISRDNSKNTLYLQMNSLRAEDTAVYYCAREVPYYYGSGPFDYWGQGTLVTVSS VL: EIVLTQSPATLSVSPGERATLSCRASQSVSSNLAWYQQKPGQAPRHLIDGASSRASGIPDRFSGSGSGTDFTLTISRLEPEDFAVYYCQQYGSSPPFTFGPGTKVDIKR and write its reported EC50. 0.135

Data provenance is patent US20250121082A1.
